pIC50: −log10 of the molar value.
The entries that follow carry pIC50 values tested on 3-hydroxy-3-methylglutaryl-coenzyme A reductase (Sus scrofa), drawn from several published reports.
Test readout: pIC50

- Chemical string: "C/C(=C\\CC[C@@H](C)[C@H]1CC[C@@]2(C)C3=C(C(=O)[C@H](O)[C@]12C)[C@@]1(C)CCC(=O)[C@@](C)(CO)[C@@H]1C[C@@H]3O)C(=O)O"
  Value reported: 4.17
- Chemical string: "CC(C)=CCC/C(C)=C/CC/C(=C/Cc1cc(O)ccc1O)C(=O)O"
  Value reported: 4.53
- Chemical string: "CC(C)=CCC/C(C)=C/CCC1=C[C@H](c2cc(F)ccc2F)OC1=O"
  Value reported: 4.60
- Chemical string: "C[C@H](CCC=C(CO)CO)[C@H]1CC[C@@]2(C)C3=C(CC[C@]12C)[C@@]1(C)CCC(=O)C(C)(C)[C@@H]1CC3=O"
  Value reported: 4.90
- Chemical string: "C[C@H](CCC=C(CO)CO)[C@H]1CC[C@@]2(C)C3=C(C(=O)C[C@]12C)[C@@]1(C)CCC(=O)C(C)(C)[C@@H]1CC3=O"
  Value reported: 4.48

---

// cross-source set; read-out = IC50; system = 3-hydroxy-3-methylglutaryl-coenzyme A reductase (Sus scrofa)

- Molecule: "C/C(=C\\CC[C@@H](C)[C@H]1CC[C@@]2(C)C3=C(C(=O)C[C@]12C)[C@@]1(C)CCC(=O)[C@@](C)(CO)[C@@H]1C[C@@H]3O)C(=O)O"
  Target or test system: "3-hydroxy-3-methylglutaryl-coenzyme A reductase (Sus scrofa)"
  IC50: "17.1 µM"
- Molecule: "C[C@H](CCC=C(CO)CO)[C@H]1C[C@@H](O)[C@@]2(C)C3=C(C(=O)C[C@]12C)[C@@]1(C)CCC(=O)C(C)(C)[C@@H]1CC3"
  Target or test system: "3-hydroxy-3-methylglutaryl-coenzyme A reductase (Sus scrofa)"
  IC50: "> 100 µM"
- Molecule: "CCc1ccc([C@H]2C=C(CC/C=C(\\C)CCC=C(C)C)C(=O)O2)cc1"
  Target or test system: "3-hydroxy-3-methylglutaryl-coenzyme A reductase (Sus scrofa)"
  IC50: "14.2 µM"
- Molecule: "CC(C)=CCC/C(C)=C/CC/C(=C\\Cc1cc(O)ccc1O)C(=O)O[C@@H](CC[C@@H](C)[C@H]1CC[C@@]2(C)C3=CC[C@H]4C(C)(C)C(=O)CC[C@]4(C)C3=CC[C@]12C)[C@](C)(O)CO"
  Target or test system: "3-hydroxy-3-methylglutaryl-coenzyme A reductase (Sus scrofa)"
  IC50: "> 100 µM"
- Molecule: "CC(C)=CCC/C(C)=C/CCC(CC(=O)c1cc(O)ccc1O)C(=O)O (stereo unspecified)"
  Target or test system: "3-hydroxy-3-methylglutaryl-coenzyme A reductase (Sus scrofa)"
  IC50: "> 100 µM"
- Molecule: "CC(=O)O[C@H]1C(=O)C2=C([C@@H](O)C[C@H]3[C@](C)(COC(=O)C[C@@](C)(O)CC(=O)O)C(=O)CC[C@]23C)[C@]2(C)C(=O)C[C@H]([C@H](C)CC/C=C(\\C)C(=O)O)[C@@]12C"
  Target or test system: "3-hydroxy-3-methylglutaryl-coenzyme A reductase (Sus scrofa)"
  IC50: "26.4 µM"
